# assayNotes: yeast transport mutant growth inhibition pilot in 384-well plates, post-Golgi transport modulator project (AID 636); further: test concentration not given here
# measurementContext: absorbance 615 nm, about 18 h, stronger effect = higher value
Examples of molecules with documented inhibition follow.
Answer with a number only, understood to be in %.

Exam item: Given the molecule O=C(Cn1cnc2sc(-c3ccccc3)cc2c1=O)N1CCOCC1 , what is its reported inhibition?
Marked response: -1.58

Exam item: What do you get for O=C(NCCc1ccccc1)c1cc(-c2ccco2)on1 ?
Marked response: -4.08

Exam item: Please answer likewise for O=c1cc(CSc2nnnn2-c2ccccc2)nc2scc(-c3ccccc3)n12
Marked response: 0.13

Others:
Exam item: Reported inhibition for c1ccc(-c2nc3nonc3c3nc4ccccc4n23)cc1 : what is it?
Marked response: -6.27

Exam item: Cool, now Cc1cccc2cc(CN(Cc3nnnn3Cc3ccco3)C3CCCC3)c3nnnn3c12
Marked response: 68.2

Exam item: Queued: CCCn1c(SCC(=O)NCc2ccco2)nc2c1c(=O)n(C)c(=O)n2C
Marked response: -7.87

Exam item: Also Nc1nc(CN2CCOCC2)cs1 ?
Marked response: -1.69

Exam item: Quick one: CC(=O)Oc1cccc(/C=c2\sc3nc(-c4ccco4)nn3c2=O)c1
Marked response: -0.91

Exam item: # repeat for O=C(Nc1ccc2c(c1)C(=O)N(C1CCCCC1)C2=O)C1CCCO1 (stereo not drawn)
Marked response: -3.33

Exam item: Now the same for CCOC(=O)C1CCN(C(=O)CN(Cc2ccccc2)S(C)(=O)=O)CC1
Marked response: -6.4

Exam item: Let us now turn to O=C(CCC(=O)N1CCN(S(=O)(=O)c2ccccc2)CC1)c1cccs1
Marked response: -5.32

Exam item: Now consider CC(NCCC(c1ccccc1)c1ccccc1)c1ccccc1 (stereo not drawn) and answer again.
Marked response: 3.77

Exam item: And COc1cccc2c1C(=O)c1c(O)c3c(c(O)c1C2=O)C[C@@](O)(C(=O)CO)C[C@@H]3O[C@H]1C[C@H](N)[C@H](O)[C@H](C)O1 ?
Marked response: 0.26

Exam item: Try this molecule next: COc1ccc(C2C(C(C)=O)=C(C)N=c3s/c(=C\c4ccc5c(c4)OCO5)c(=O)n32)c(OC)c1 (stereo not drawn)
Marked response: -2.08

Exam item: Consider next the molecule Cc1ccc(S(=O)(=O)N(C)CC(=O)NC2CCCC2)cc1 in the same way.
Marked response: -2.63

Exam item: CS(=O)(=O)N(CC(=O)N1CCCCCC1)c1ccccc1 , same question.
Marked response: -5.79

Exam item: Again, but for COc1ccc(CN2C(=O)C(O)(CC(=O)c3c(C)n[nH]c3C)c3ccccc32)cc1OC (stereo not drawn)
Marked response: -0.53

Exam item: Entry to check: CCOC(=O)c1nnn(-c2nonc2NC(C)=O)c1C
Marked response: -0.65
